The measured values listed here are drawn from ChEMBL document CHEMBL1140124.

Target: Tyrosine-protein phosphatase non-receptor type 1 (Homo sapiens)
Sequence (P18031 whole entry): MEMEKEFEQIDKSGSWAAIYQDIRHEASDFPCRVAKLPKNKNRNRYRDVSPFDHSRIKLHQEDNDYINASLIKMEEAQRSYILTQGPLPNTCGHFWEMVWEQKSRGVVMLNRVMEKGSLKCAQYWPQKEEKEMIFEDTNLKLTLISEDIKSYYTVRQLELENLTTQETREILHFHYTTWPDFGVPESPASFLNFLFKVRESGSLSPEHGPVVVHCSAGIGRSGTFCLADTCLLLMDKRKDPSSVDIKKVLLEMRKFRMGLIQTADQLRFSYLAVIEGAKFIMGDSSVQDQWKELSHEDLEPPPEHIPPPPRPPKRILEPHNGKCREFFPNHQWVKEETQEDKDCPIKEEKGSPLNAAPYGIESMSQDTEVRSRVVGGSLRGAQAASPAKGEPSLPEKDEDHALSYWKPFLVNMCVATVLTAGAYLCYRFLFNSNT
Assay: Inhibition of human recombinant PTP1B after 30 mins
measuredQuantity: pIC50
To interpret pIC50, take it as minus log10 of a concentration measured in moles per litre.

Consider the worked cases shown below.
CC1(C)CC[C@]2(C(=O)O)CC[C@]3(C)C(=CC[C@@H]4[C@@]5(C)CCC(=O)C(C)(C)[C@@H]5CC[C@]43C)[C@@H]2C1 | 5.46
C[C@H]1[C@H](C)CC[C@]2(C(=O)O)CC[C@]3(C)C(=CC[C@@H]4[C@@]5(C)CC[C@H](O)[C@](C)(CO)[C@@H]5CC[C@]43C)[C@H]12 | 4.89
CCCCCCCCCCCCCCCC(=O)C1=C(O)[C@@H](CO)OC1=O | 5.39

Challenge: Sample "C[C@@H]1CC[C@]2(C(=O)O)CC[C@]3(C)C(=CC[C@@H]4[C@@]5(C)CC[C@H](O)C(C)(C)[C@@H]5CC[C@]43C)[C@@H]2[C@]1(C)O" — what was its pIC50?
Response given: 5.41
